Ref: patent US20240200089A1

- TARGET ENTITY: T1, chicken interleukin 10 (chicken (Gallus gallus), UniProt Q6A2H4 22-174)
- T1 construct: also called cIL-10; cIL10
- T1 sequence: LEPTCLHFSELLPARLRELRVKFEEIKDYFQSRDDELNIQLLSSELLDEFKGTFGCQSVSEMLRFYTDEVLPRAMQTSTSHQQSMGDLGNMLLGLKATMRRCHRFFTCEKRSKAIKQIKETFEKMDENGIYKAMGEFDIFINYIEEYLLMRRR
- EXPERIMENT SUMMARY: ELISA, sdAB titrated on cIL-10 coated plates
pEC50: −log10 of the molar value.
OBSERVABLE: pEC50

Note to self: pEC50 recorded for chIL10sdAB1H1 (VHH, Llama single domain antibody; The construct used in the ELISA is not described) VHH: QVQLQASGGGLVQAGGSLRLSCAASGRTFNSYAWGWFRQAPGKERGFVARISFSGGHTYYSDSVKGRFTISRDNAKNSVYLQMNSLKPEDTAVYYCAADPTPYGLRNERNYHYWGQGTQVTVSS was 7.70

Note to self: pEC50 recorded for chIL10sdAB1D6 (VHH, Llama single domain antibody; The construct used in the ELISA is not described; also called 44-IL-bR2-1D6) VHH: QVQLQASGGGLVQAGGSLRLSCQASESISSINTMGWFRQASGEEREFVAAIESGGATAYAESAKGRFTISRDNAKNTVYLQMNSLKPEDTAVYYCAAGVPTYDDDAMPISWRFWGRGTLVTVSS was ~7.00

Note to self: pEC50 recorded for chIL10sdAB1B9 (VHH, Llama single domain antibody; The construct used in the ELISA and the cell assay is not described) VHH: QVQLQESGGGLVQAGGSLRLSCAASGRTFSSYAWGWFRQAPGKEREFVARISFSGGHTYYSDSVKGRFTISRDNAKNTVYLQMNSLKPEDTAVYYCAADPTPYGLRNERNYPYWGQGTQVTVSS was ~7.46

Note to self: pEC50 recorded for chIL10sdAB1F11 (VHH, not shown: small tags and cut ends, Llama single domain antibody; also called 86-IL-bR2-1F11) VHH: QVQLQEFGGGLVQPGGSLRLSCAASGRTGSSYAMGWFRQAPGKEREFVAAISWSGGSTDYADSVKGRFTISRDNAKNTMYLQMNSLKPEDTAVYYCAVDRNLFKLRVAVQEYTNLGQGTQVTVSS was ~7.82

Note to self: pEC50 recorded for chIL10sdAB1A11 (VHH, not shown: small tags and cut ends, Llama single domain antibody; also called 1A11 sdAB; 81-IL-bR2-1A11) VHH: QVQLQESGGGLVQPGGSLRLSCAASGNIFSINTMGWYRQAPGKQRELVASITTGGTTNYEDSVKGRFTISRDNAKKTVYLQMNRLKPEDTAVYYCNHRRSYSGRDYPVYGMDYWGKGTLVTVSS was ~9.00
